measurement.target: HLA-A*02:01 (Homo sapiens, UniProt P04439, D140Y/D185E/D98H/E176V/E277Q/G131W/G231S/I119V/I121R/I166T/I218V/L300P/L318F/N151K/N90K/P208A/P217A/Q86G/Q94H/R138H/R169H/T345S)
protocol.description: MHC binding assay (UV-ligand exchange, β2m ELISA, peptide exchange yield)
cond: MHC class I binding score; binding to HLA-A*02:01 ranged by peptide exchange yield (UV-ligand exchange, β2m ELISA)
recorded.metric: Peptide exchange

Input 282 (LLADVVPTT; listed as Homo sapiens) [compound 282] . Output Peptide exchange: “+++” (≧50 = +++)

Input 501 (LLDPNVKSIFV; listed as Homo sapiens) [compound 501] . Output Peptide exchange: “+++” (≧50 = +++)

Input 185 (FLIDDKGYTL; listed as Homo sapiens) [compound 185] . Output Peptide exchange: “++” (≧20% = ++)

Input 154 (ALDDGTPAL; listed as Homo sapiens) [compound 154] . Output Peptide exchange: “++” (≧20% = ++)

Input 454 (KLPPPPPQA; listed as Homo sapiens) [compound 454] . Output Peptide exchange: “+++” (≧50 = +++)

# per-item lookup of Peptide exchange; items listed below
1. 513 (SLWPSPEQL; listed as Homo sapiens) [compound 513]
2. 87 (ALPEAPAPLLPHIT; listed as Homo sapiens) [compound 87]

“++” (≧20% = ++)
“++” (≧20% = ++)
